All figures here come from patent US20260042764A1.

- subject.of.test: Avi-KRAS G12V (1-169) GppNHp/RAF1 RBD-3xFLAG (52-151) (Homo sapiens, UniProt P01116, G12V)
- Construct: Avi-KRAS G12V (1-169)
- Sequence (P01116 1-169 isoform P01116-2 G12V): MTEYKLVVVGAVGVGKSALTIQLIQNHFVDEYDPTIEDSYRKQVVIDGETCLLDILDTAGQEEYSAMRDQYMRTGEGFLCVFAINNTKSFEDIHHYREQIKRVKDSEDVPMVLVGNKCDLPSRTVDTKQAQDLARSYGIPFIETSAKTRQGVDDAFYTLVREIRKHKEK
- experimental.protocol: Raf1-KRAS G12V-GppNHP disruption HTRF assay (Biological Example 1)
- Format: binding
- recorded.conditions: KRAS G12V, GppNHp-loaded; class symbols
- Experimental: A protein:protein interaction (PPI) Homogeneous Time Resolved Fluorescence (HTRF) assay was used to determine the effectiveness of compounds of the present disclosure in disrupting KRAS protein and effector RAF1 binding. The assay buffer included: 50 mM Tris pH 7.5, 100 mM NaCl, 5 mM MgCl2, 0.1% BSA, 0.01% Tween, and 10% DMSO. The bead buffer included: 50 mM Tris pH 7.5, and 0.01% Tween 20. […] Data was reported as percentage of activity, with DMSO as 100%. Data was plotted and analyzed using Prism 8.
pIC50: −log10 of the molar value.
attribute.measured: pIC50

>  <compound>
Cc1c(C(=O)N2CCOCC2)nn2c1CN(c1nc(OCC34CCCN3CC(F)C4)nc3c(F)c(-c4ccc(F)c5sc(N)c(C#N)c45)c(C(F)(F)F)cc13)CC2 (stereo not drawn)

>  <subject.of.test>
Avi-KRAS G12V (1-169) GppNHp/RAF1 RBD-3xFLAG (52-151) (Homo sapiens, UniProt P01116, G12V)

>  <pIC50>
6.00 to 7.00

$$$$
>  <compound>
C[C@H]1Cn2nnc(C#N)c2CN1c1nc(OC[C@@]23CCCN2C[C@H](F)C3)nc2c(F)c(-c3ccc(F)c4sc(N)c(C#N)c34)c(C(F)(F)F)cc12 (atropisomer, axis not shown)

>  <subject.of.test>
Avi-KRAS G12V (1-169) GppNHp/RAF1 RBD-3xFLAG (52-151) (Homo sapiens, UniProt P01116, G12V)

>  <pIC50>
5.00 to 6.00

$$$$
>  <compound>
CCN(CC)C(=O)N1CCC(N(CC)c2nc(OCC34CCCN3CC(F)C4)nc3c(F)c(-c4ccc(F)c5sc(N)c(C#N)c45)c(C(F)(F)F)cc23)C1 (stereo not drawn)

>  <subject.of.test>
Avi-KRAS G12V (1-169) GppNHp/RAF1 RBD-3xFLAG (52-151) (Homo sapiens, UniProt P01116, G12V)

>  <pIC50>
6.00 to 7.00

$$$$
>  <compound>
CCN(c1nc(OC[C@@]23CCCN2C[C@H](F)C3)nc2c(F)c(-c3ccc(F)c4sc(N)c(C#N)c34)c(C(F)(F)F)cc12)[C@@H]1C[C@H](C)N(C(=O)C2CC2)C1 (atropisomer, axis not shown)

>  <subject.of.test>
Avi-KRAS G12V (1-169) GppNHp/RAF1 RBD-3xFLAG (52-151) (Homo sapiens, UniProt P01116, G12V)

>  <pIC50>
6.00 to 7.00

$$$$
>  <compound>
CCN(c1nc(OC[C@@]23CCCN2C[C@H](F)C3)nc2c(F)c(-c3ccc(F)c4sc(N)c(C#N)c34)c(C(F)(F)F)cc12)[C@@H]1CN2C(=O)OC[C@]2(C)C1 (atropisomer, axis not shown)

>  <subject.of.test>
Avi-KRAS G12V (1-169) GppNHp/RAF1 RBD-3xFLAG (52-151) (Homo sapiens, UniProt P01116, G12V)

>  <pIC50>
> 7.00

$$$$

For the next question, use this compound.
Noted pIC50 for CCN(c1nc(OC[C@@]23CCCN2C[C@H](F)C3)nc2c(F)c(-c3ccc(F)c4sc(N)c(C#N)c34)c(C(F)(F)F)cc12)[C@H]1CCN(C(=O)c2cc(C)no2)C1 (atropisomer, axis not shown) , tested on Avi-KRAS G12V (1-169) GppNHp/RAF1 RBD-3xFLAG (52-151) (Homo sapiens, UniProt P01116, G12V): > 7.00
